Just for reference, paper PMC9027532 is where these values come from.

experiment: Pharmacokinetic study in rats (plasma, LC-MS/MS, NCA); details: male, Sprague-Dawley, rat, plasma, po, 100 mg/kg, Mean plasma concentration, rats, 24 h, multiple p.o. 100 mg/kg
quantity.measured: concentration at 24 h (ng/mL)
Answers are plain numbers, in ng/mL.

So, CC(=O)Nc1ccc(NC(=O)c2ccc(C(C)=O)o2)cc1 [Compound 25a] ? Its concentration at 24 h was 28.1

---

experiment: Tissue distribution study in rats; type: in vivo, SD rats; conditions: male, Sprague-Dawley, rat, heart, single oral dose 100 mg/kg
quantity.measured: AUC(0-t) (ng·h/mL)
Give bare numbers, in ng·h/mL.

So, CC(=O)Nc1ccc(NC(=O)c2ccc(C(C)=O)o2)cc1 [Compound 25a] ? Its AUC(0-t) was 4160

---

Assay: Tissue distribution study in rats
Format: in vivo, SD rats
Conditions: male, Sprague-Dawley, rat, bone, single oral dose 100 mg/kg
Description: Compound 25a was extensively distributed in most tissues of rats, and the drug concentration was high in organs with abundant hemoperfusions, such as the kidney, heart, lung, and spleen, among which the drug concentration was the highest in the kidney, with a tissue plasma distribution coefficient Kp = 1.67. […]
quantity.measured: half-life (h)
Numbers only, in h.

So, CC(=O)Nc1ccc(NC(=O)c2ccc(C(C)=O)o2)cc1 [Compound 25a] ? Its half-life was 3.7

---

experiment: Pharmacokinetic study in rats (plasma, LC-MS/MS, NCA); settings: male, Sprague-Dawley, rat, plasma, po, 25 mg/kg, Mean plasma concentration, rats, 6 h, single p.o. 25 mg/kg
quantity.measured: concentration at 6 h (ng/mL)
Numbers only, in ng/mL.

So, CC(=O)Nc1ccc(NC(=O)c2ccc(C(C)=O)o2)cc1 [Compound 25a] ? Its concentration at 6 h was 230

---

assay: Tissue distribution study in rats; type: in vivo, SD rats; conditions: male, Sprague-Dawley, rat, testis, single oral dose 100 mg/kg
quantity.measured: Tmax (h)
Numbers only, in h.

So, CC(=O)Nc1ccc(NC(=O)c2ccc(C(C)=O)o2)cc1 [Compound 25a] ? Its Tmax was 6

---

test: Tissue distribution study in rats; assay type: in vivo, SD rats; conditions: male, Sprague-Dawley, rat, plasma (tissue distribution study), single oral dose 100 mg/kg
quantity.measured: AUC(0-t)
Form field: result (number plus unit)

So, CC(=O)Nc1ccc(NC(=O)c2ccc(C(C)=O)o2)cc1 [Compound 25a] ? Its AUC(0-t) was 5200 ng·h/mL

---

assay: Pharmacokinetic study in rats (plasma, LC-MS/MS, NCA); settings: read-out: CL (CL/F row); rats, single i.v. 1 mg/kg
quantity.measured: clearance (mL/min/kg)
Give bare numbers, in mL/min/kg.

So, CC(=O)Nc1ccc(NC(=O)c2ccc(C(C)=O)o2)cc1 [Compound 25a] ? Its clearance was 35

---

experiment: Pharmacokinetic study in rats (plasma, LC-MS/MS, NCA); conditions: male, Sprague-Dawley, rat, plasma, po, 25 mg/kg, Mean plasma concentration, rats, 1 h, single p.o. 25 mg/kg
quantity.measured: concentration at 1 h (ng/mL)
Answers are plain numbers, in ng/mL.

So, CC(=O)Nc1ccc(NC(=O)c2ccc(C(C)=O)o2)cc1 [Compound 25a] ? Its concentration at 1 h was 245

---

experiment: Pharmacokinetic study in rats (plasma, LC-MS/MS, NCA); conditions: male, Sprague-Dawley, rat, plasma, po, 100 mg/kg, Mean plasma concentration, rats, 6 h, single p.o. 100 mg/kg
quantity.measured: concentration at 6 h (µg/mL)
Numbers only, in µg/mL.

So, CC(=O)Nc1ccc(NC(=O)c2ccc(C(C)=O)o2)cc1 [Compound 25a] ? Its concentration at 6 h was 0.835
